- Assay Text: soluble fraction after stress (log2 fold change); higher = more stays soluble; pooled small domains, quantitative proteomics
- Reported Conditions: stress: 50 degC
Binning scheme for soluble fraction (log2): low (below -0.3), medium (-0.3 to below -0.03), high (-0.03 or more)

Consider the worked cases shown below.
HMGRKPVSPEIVERVLQLAKSNPDWGYEHIAGTMRYLGYNVSATTIRHILEANGIVPDPERRL | medium
HMDDPQAELLARAVRRVALAAAERTRRNEYGGVYLGLFRQFGISSYRRTPPARLHEALEWLERWRGDLM | medium
HMRADYVGGLDPAGDNFLALRTGPGSGYAMILPMGPGTFVTVLRRNGKWLLVELEDGTRGWAYGSYILG | low

Task: Input "HMTATVPDSEAGIRLDVYAAALLGVSRAGAQKYIESGAVRVNGLPAPKNRRLESGDVIEAVLPDPE" ; output its category
Output: high

Task: Place this sequence in its band: "HMEVNMEEKMEFVHSYIKTHKTFLFRQLLSESKSRTQVIVTFLVILELIKGGKISVTQENRTDDILINSL"
Output: low
